Molecular target: T1, extracellular domain of human BCMA (human, UniProt Q02223 1-54)
T1 construct: amine-linked to Octet AR2G tips; also called hsBCMA; BCMA (human)
T1 sequence: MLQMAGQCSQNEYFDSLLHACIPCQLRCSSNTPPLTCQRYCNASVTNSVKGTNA
Assay: Octet BLI; Fab 200 nM
ASSAY_ENDPOINT: Kd

Worked set:
[Q] Which Kd is listed for AB200-(2Vk44)_R2-VH-v1 (Fab, V domains shown) VH: QVQLVQSGAEVKKPGSSVKVSCKASGGTFTNYWIHWVRQAPGQGLEWMGGTYRSHSDTYYNQKYKSRVTITADKSTSTAYMELSSLRSEDTAVYYCARGAIYHGYDVIENWGQGTLVTVSS VL: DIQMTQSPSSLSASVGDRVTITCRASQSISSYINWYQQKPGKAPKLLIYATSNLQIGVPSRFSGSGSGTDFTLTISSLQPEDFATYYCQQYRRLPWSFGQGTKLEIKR ?
[A] 11.8 nM

[Q] Which Kd is listed for AB200-(2Vk44)_R2-VH-v72 (Fab, V domains shown) VH: QVQLVQSGAEVKKPGSSVKVSCKASGGTFSNYWIHWVRQAPGQGLEWMGATYRIQSDTYYAQKFKSRVTITADKSTSTAYMELSSLRSEDTAVYYCARGAVYHGYDVIDNWGQGTLVTVSS VL: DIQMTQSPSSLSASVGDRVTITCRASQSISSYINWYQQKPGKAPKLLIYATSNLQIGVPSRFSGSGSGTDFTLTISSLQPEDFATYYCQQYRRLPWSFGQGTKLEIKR ?
[A] 2.16 nM

Further cases:
[Q] Which Kd is listed for AB200-(2Vk44)_R2-VH-v61 (Fab, V domains shown) VH: QVQLVQSGAEVKKPGSSVKVSCKASGGTFSNYWIHWVRQAPGQGLEWMGGTYRIHSDTYYNQKYKSRVTITADKSTSTAYMELSSLRSEDTAVYYCARGAIYHGYDVIENWGQGTLVTVSS VL: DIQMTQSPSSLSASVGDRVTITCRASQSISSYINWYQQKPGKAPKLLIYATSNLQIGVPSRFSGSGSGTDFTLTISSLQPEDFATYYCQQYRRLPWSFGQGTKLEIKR ?
[A] 19.2 nM
